target-under-test: human ether-à-go-go-related gene (hERG) potassium channel (human);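 further: peak tail current of the secondary pulse compared with the same well before compound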
Sequence (Q12809 whole entry, looked up): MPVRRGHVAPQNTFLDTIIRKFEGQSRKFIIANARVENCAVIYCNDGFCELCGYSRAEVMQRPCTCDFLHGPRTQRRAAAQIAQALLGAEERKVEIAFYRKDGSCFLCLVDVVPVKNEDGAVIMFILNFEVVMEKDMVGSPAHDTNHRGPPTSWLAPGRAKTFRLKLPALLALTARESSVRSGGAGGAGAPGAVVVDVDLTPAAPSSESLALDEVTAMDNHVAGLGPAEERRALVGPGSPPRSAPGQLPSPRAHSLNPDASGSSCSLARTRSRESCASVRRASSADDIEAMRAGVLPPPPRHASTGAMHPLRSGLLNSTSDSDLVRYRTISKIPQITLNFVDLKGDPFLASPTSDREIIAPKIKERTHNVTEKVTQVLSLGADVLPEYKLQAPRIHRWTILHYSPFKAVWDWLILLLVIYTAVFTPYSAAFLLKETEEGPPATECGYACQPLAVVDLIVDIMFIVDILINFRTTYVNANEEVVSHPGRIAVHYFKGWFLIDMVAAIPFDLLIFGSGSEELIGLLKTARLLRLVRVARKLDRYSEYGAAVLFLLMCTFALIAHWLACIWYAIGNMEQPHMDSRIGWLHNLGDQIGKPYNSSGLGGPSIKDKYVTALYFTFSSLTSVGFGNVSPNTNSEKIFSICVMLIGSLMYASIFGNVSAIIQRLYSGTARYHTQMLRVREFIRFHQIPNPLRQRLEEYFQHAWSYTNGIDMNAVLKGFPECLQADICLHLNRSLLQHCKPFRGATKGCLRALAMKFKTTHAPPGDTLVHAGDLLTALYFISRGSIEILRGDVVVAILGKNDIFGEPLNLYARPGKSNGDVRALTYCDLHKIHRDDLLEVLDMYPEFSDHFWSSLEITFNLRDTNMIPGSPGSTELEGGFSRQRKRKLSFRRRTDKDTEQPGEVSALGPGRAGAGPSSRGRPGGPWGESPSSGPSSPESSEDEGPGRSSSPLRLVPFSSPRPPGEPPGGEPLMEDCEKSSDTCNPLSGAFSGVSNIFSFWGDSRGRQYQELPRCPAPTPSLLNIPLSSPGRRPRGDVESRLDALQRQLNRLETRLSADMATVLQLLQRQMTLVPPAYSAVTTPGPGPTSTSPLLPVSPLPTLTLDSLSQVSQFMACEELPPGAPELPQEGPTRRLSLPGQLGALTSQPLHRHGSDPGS
protocol-description: primary screen, population patch clamp on CHO cells stably expressing hERG; higher = less effect of the substance
About 14,000 (4.5%) of roughly 310,000 compounds showed an effect of 50% or more. Effects have a minus sign here. For the sample, strong results were picked, then their nearest neighbours and some compounds at random.
Kindly return MET if reported hERG current change (%, negative = inhibition) at 10uM is no lower than -20%; return NOT MET if it is lower.

IN: // inclusive: hERG current change (%, negative = inhibition) at 10uM at least -20%? input: `O=S(=O)(Cc1cc(-c2ccccc2)no1)c1ccccc1`
OUT: MET

IN: And then `CCCOc1ccccc1-n1sc2c(c1=S)-c1cc(OC)cc3c1N(C(=O)C3=O)C2(C)C` , what is it?
OUT: MET

IN: And then COc1ccc(F)cc1C(=O)C1CCCN(Cc2cn(C)c3ccccc23)C1 (stereo not drawn) , what is it?
OUT: NOT MET

IN: And then `CC(C)(C)c1ccc(SCCc2ccncc2)cc1` , what is it?
OUT: MET

IN: And then `O=S(=O)(Cc1cc(-c2ccccc2Cl)no1)c1ccccc1` , what is it?
OUT: NOT MET

IN: And then COc1ccc(F)cc1C(=O)C1CCCN(Cc2c(C)n(C)n(-c3ccccc3)c2=O)C1 (stereo not drawn) , what is it?
OUT: MET

IN: And then `Cl.O=C(OCCN1CCCCC1)c1cccc(Cl)c1` , what is it?
OUT: NOT MET

IN: And then `Cc1cc(N2CCN(c3ccccc3)CC2)nc(-n2nc(C)cc2C)n1` , what is it?
OUT: NOT MET

IN: And then COc1ccc(C(=O)C2CCCN(Cc3c[nH]c4ccccc34)C2)c(OC)c1 (stereo not drawn) , what is it?
OUT: NOT MET

IN: And then `N#Cc1c(N)c(C(=O)c2ccc(Cl)cc2)n2c1CCC2` , what is it?
OUT: MET

IN: And then `O=S(=O)(Cc1cc(-c2ccc(Cl)cc2)no1)c1ccccc1` , what is it?
OUT: MET

IN: And then `COc1cccc(CN(C)C(=O)c2cccc(OC3CCN(C4CCCC4)CC3)c2)c1` , what is it?
OUT: NOT MET

IN: And then COc1ccc(F)cc1C(=O)C1CCCN(Cc2c[nH]c3ccccc23)C1 (stereo not drawn) , what is it?
OUT: NOT MET

IN: And then `COc1cccc(CN(C)C(=O)c2cccc(OCc3ccccc3)c2)c1` , what is it?
OUT: MET

IN: And then `O=c1/c(=C/c2ccco2)sc2nc(-c3ccccc3Br)nn12` , what is it?
OUT: MET

IN: And then `Cc1cccc2c1N(N=O)CCC2` , what is it?
OUT: MET

IN: And then `CCc1ccccc1NC1=NCC(=O)N1Cc1ccccc1` , what is it?
OUT: MET

IN: And then `COc1ccc(C(=O)COC(=O)Cc2c[nH]c3ccccc23)c(OC)c1` , what is it?
OUT: MET

IN: And then COc1ccc(C(=O)C2CCCN(Cc3c(C)[nH]c4ccccc34)C2)c(OC)c1 (stereo not drawn) , what is it?
OUT: NOT MET

IN: And then `Cc1cc(C)n(-c2nnc(N3CCN(c4ccccc4)CC3)nn2)n1` , what is it?
OUT: MET

IN: And then `COc1ccc(S(=O)(=O)Nc2ccc(-n3cnnn3)cc2)cc1[N+](=O)[O-]` , what is it?
OUT: MET
